Ref: paper PMC11721672

- TESTED_ON: hGLP1 receptor (Homo sapiens, UniProt P43220)
- Construct: expressed in transfected cells; host or cells: HEK (human embryonic kidney) cells co-expressing hGLP1 receptor and CRE-Luciferase
- Sequence (P43220 24-463): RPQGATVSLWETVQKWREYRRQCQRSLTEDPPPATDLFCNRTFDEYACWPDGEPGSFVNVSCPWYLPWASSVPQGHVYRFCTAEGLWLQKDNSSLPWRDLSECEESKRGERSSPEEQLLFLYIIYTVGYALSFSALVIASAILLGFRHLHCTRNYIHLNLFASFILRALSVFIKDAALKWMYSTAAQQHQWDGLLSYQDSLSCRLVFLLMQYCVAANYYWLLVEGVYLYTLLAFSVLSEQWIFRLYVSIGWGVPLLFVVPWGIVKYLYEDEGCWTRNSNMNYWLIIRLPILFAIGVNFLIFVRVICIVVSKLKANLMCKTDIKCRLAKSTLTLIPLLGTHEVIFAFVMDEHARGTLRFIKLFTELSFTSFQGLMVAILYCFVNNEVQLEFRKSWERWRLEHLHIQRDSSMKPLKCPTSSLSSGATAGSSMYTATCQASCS
- TEST_NAME: GLP-1 receptor agonism assay (HTRF cAMP, HEK cells co-expressing hGLP1 receptor and CRE-Luciferase)
- Assay type: cell-based
- RECORDED_CONDITIONS: Table 2, Ala-scanning, 0% HSA; >1000 nM = out of range; read-out: cAMP EC50
pEC50: −log10 of the molar value. Square brackets hold non-standard residues; d marks the D form. Peptide text beside a SMILES is read from it. Bip = N[C@@H](Cc1ccc(-c2ccccc2)cc1)C(=O)O; Phe(2-F) = N[C@@H](Cc1ccccc1F)C(=O)O; Aib = CC(C)(N)C(=O)O

MOLECULE	RESULT_COMPARATOR	pEC50
C[C@H](NC(=O)CNC(=O)[C@H](CCC(=O)O)NC(=O)C(C)(C)NC(=O)[C@@H](N)Cc1c[nH]cn1)C(=O)N[C@@H](Cc1ccccc1F)C(=O)N[C@H](C(=O)N[C@@H](CO)C(=O)N[C@@H](CC(=O)O)C(=O)N[C@@H](Cc1ccc(-c2ccccc2)cc1)C(=O)N[C@@H](Cc1ccc(-c2ccccc2)cc1)C(N)=O)[C@@H](C)O [RXL-3004] (H-H[Aib]EGA[Phe(2-F)]TSD[Bip][Bip]-NH2)	=	8.11
C[C@H](NC(=O)[C@H](CCC(=O)O)NC(=O)C(C)(C)NC(=O)[C@@H](N)Cc1c[nH]cn1)C(=O)N[C@H](C(=O)N[C@@H](Cc1ccccc1F)C(=O)N[C@H](C(=O)N[C@@H](CO)C(=O)N[C@@H](CC(=O)O)C(=O)N[C@@H](Cc1ccc(-c2ccccc2)cc1)C(=O)N[C@@H](Cc1ccc(-c2ccccc2)cc1)C(N)=O)[C@@H](C)O)[C@@H](C)O [RXL-3037] (H-H[Aib]EAT[Phe(2-F)]TSD[Bip][Bip]-NH2)	=	6.68
C[C@H](NC(=O)[C@H](Cc1ccc(-c2ccccc2)cc1)NC(=O)[C@H](CC(=O)O)NC(=O)[C@H](CO)NC(=O)[C@@H](NC(=O)[C@H](Cc1ccccc1F)NC(=O)[C@@H](NC(=O)CNC(=O)[C@H](CCC(=O)O)NC(=O)C(C)(C)NC(=O)[C@@H](N)Cc1c[nH]cn1)[C@@H](C)O)[C@@H](C)O)C(N)=O	<	6.00
C[C@H](N)C(=O)NC(C)(C)C(=O)N[C@@H](CCC(=O)O)C(=O)NCC(=O)N[C@H](C(=O)N[C@@H](Cc1ccccc1F)C(=O)N[C@H](C(=O)N[C@@H](CO)C(=O)N[C@@H](CC(=O)O)C(=O)N[C@@H](Cc1ccc(-c2ccccc2)cc1)C(=O)N[C@@H](Cc1ccc(-c2ccccc2)cc1)C(N)=O)[C@@H](C)O)[C@@H](C)O	=	7.66
